tested on: α7 integrin (LacZ reporter in α7βgal+/− myoblasts); test: Myoblast α7+/LacZ integrin FDG assay (Burkin assay in myoblasts, 96-well); format: cell-based, mouse; details: Mus musculus, Myoblast, 48 h; 1 uM; α7+/LacZ myoblasts, 96-well; read-out: Burkin Assay in Myoblasts, signal relative to DMSO

# compound, assay-target, fold induction at 1 µM
data = [
    ("COc1nccc(NCc2ccccc2)c1C#N", "α7 integrin (LacZ reporter in α7βgal+/− myoblasts)", 1.01),
    ("COc1ccc(-n2c(C)c(C(C)=O)c3cc(OC(C)=O)ccc32)cc1", "α7 integrin (LacZ reporter in α7βgal+/− myoblasts)", 1.2),
    ("COc1cc(NC(=O)C2C3C=CC(C3)C2C(=O)O)ccc1NC(=O)c1ccccc1 (centres unmarked)", "α7 integrin (LacZ reporter in α7βgal+/− myoblasts)", 0.976),
    ("COc1ccc(N2CCN(C(=O)c3cc(C)on3)CC2)cc1", "α7 integrin (LacZ reporter in α7βgal+/− myoblasts)", 1.16),
    ("COc1cc(C)c(NC(=O)COc2ccc3c(c2)OCO3)cc1C", "α7 integrin (LacZ reporter in α7βgal+/− myoblasts)", 1.08),
]

* * *

# Burkin Assay in Myoblasts, signal relative to DMSO values compiled below
tested on: α7 integrin (LacZ reporter in α7βgal+/− myoblasts); test: Myoblast α7+/LacZ integrin FDG assay (Burkin assay in myoblasts, 96-well); assay type: cell-based, mouse; conditions: 40 uM; α7+/LacZ myoblasts, 96-well
value-kind: Burkin Assay in Myoblasts, signal relative to DMSO

# compound, assay-target, readout-value
measured = [
    ("CCOC(=O)c1cc(C(=O)OCC)c(=O)[nH]c1SCc1ccccc1", "α7 integrin (LacZ reporter in α7βgal+/− myoblasts)", 0.8306),
    ("O=C(c1ccccc1)N1CCN(S(=O)(=O)c2cccs2)CC1", "α7 integrin (LacZ reporter in α7βgal+/− myoblasts)", 1.091),
    ("COc1ccc(CCNC(=O)Cn2nnc(C(=O)Nc3ccc(Br)cc3)c2N)cc1OC", "α7 integrin (LacZ reporter in α7βgal+/− myoblasts)", 0.4392),
    ("O=c1[nH]c(SCc2ccc(Cl)cc2)nc2ccsc12", "α7 integrin (LacZ reporter in α7βgal+/− myoblasts)", 0.861),
    ("COc1ccc(OC)c(NC(=O)CN2CCC(NC(=O)c3ccccc3C)CC2)c1", "α7 integrin (LacZ reporter in α7βgal+/− myoblasts)", 1.048),
    ("CCC(C)n1[nH]c(=O)cc1N (centres unmarked)", "α7 integrin (LacZ reporter in α7βgal+/− myoblasts)", 1.068),
    ("COc1cc(C(C(=O)NC2CCCCC2)N(C(=O)c2snc(C(N)=O)c2N)c2ccc(C)cc2)ccc1O (centres unmarked)", "α7 integrin (LacZ reporter in α7βgal+/− myoblasts)", 0.3039),
    ("O=C(Nc1ccc(Oc2cccnc2)cc1)c1ccccc1Cl", "α7 integrin (LacZ reporter in α7βgal+/− myoblasts)", 0.8343),
    ("Cc1ccccc1S(=O)(=O)N1C[C@H]2CON(C)[C@H]2C[C@H]1c1cccc(-c2ccccc2)c1", "α7 integrin (LacZ reporter in α7βgal+/− myoblasts)", 0.7066),
    ("Cc1[nH]c2ccc(F)cc2c1CCN(Cc1ccco1)C(=S)NC(C)(C)C", "α7 integrin (LacZ reporter in α7βgal+/− myoblasts)", 0.7199),
    ("CCOn1c(=O)c(-c2ccccc2)[n+]([O-])c2ccccc21", "α7 integrin (LacZ reporter in α7βgal+/− myoblasts)", 1.0836),
]

Data origin: patent US9980943B2
